These data points were gathered from patent US12516056B2.

Study System: Recombinant JAK3 (Homo sapiens, UniProt P52333)
Construct: purchased Carna Biosciences
Sequence (P52333 whole entry): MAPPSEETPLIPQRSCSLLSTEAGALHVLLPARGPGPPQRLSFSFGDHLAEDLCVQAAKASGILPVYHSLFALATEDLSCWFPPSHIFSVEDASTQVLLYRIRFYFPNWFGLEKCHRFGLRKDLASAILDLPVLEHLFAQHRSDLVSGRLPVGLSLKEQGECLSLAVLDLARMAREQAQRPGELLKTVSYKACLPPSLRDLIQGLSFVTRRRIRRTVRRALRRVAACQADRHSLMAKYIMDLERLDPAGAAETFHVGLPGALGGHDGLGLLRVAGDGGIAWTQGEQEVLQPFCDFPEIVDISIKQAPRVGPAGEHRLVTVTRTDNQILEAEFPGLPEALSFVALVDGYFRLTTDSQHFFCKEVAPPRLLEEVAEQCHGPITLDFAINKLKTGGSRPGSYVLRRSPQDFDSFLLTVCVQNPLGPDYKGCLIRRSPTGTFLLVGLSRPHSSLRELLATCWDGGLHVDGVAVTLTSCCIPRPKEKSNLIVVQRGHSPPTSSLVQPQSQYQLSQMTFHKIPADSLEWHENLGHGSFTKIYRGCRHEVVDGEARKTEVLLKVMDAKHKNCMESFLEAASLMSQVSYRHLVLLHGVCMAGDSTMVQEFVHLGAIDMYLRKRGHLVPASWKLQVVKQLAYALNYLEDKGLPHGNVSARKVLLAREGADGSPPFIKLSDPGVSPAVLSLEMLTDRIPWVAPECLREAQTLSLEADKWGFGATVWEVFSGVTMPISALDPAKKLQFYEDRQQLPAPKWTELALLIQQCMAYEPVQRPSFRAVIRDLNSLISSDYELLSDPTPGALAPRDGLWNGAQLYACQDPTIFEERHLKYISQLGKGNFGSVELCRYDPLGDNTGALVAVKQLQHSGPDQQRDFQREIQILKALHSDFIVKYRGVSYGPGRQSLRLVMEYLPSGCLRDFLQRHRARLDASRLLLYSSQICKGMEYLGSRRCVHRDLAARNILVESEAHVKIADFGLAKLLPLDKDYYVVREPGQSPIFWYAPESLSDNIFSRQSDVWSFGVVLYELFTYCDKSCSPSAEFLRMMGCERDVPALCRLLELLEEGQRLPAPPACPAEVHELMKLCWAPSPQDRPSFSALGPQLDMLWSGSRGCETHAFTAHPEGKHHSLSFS
Test Protocol: JAK biochemical assay (LANCE Ultra TR-FRET), JAK3
Recorded Conditions: recombinant JAK3, TR-FRET; read-out: Biochemical Assay (μM) JAK3
For each of the compounds below, state its IC50.

Solved cases (5 shown):
{"Compound": "N#CC1(NC(=O)n2cc(-c3ccnc4[nH]c(=O)[nH]c34)cn2)CC1 [Example 1032]", "IC50": "< 0.5 µM"}
{"Compound": "N#CCNC(=O)c1ccc(-n2cc(-c3ccnc4[nH]cnc34)cn2)nc1 [Example 1088]", "IC50": "> 1 µM"}
{"Compound": "c1cc(-c2cnn(-c3ccc(CC4COC4)cn3)c2)c2nc[nH]c2n1 [Example 1081]", "IC50": "< 0.5 µM"}
{"Compound": "CC(O)(c1ccc(-n2cc(-c3ccnc4[nH]cnc34)cn2)nc1)C(F)(F)F (centres unmarked) [Example 1125]", "IC50": "0.009 µM"}
{"Compound": "COc1cc(-n2cc(-c3ccnc4[nH]cnc34)cn2)ccc1CC#N [Example 1105]", "IC50": "> 0.5 µM"}

Here are 3 compounds. What values of IC50 were reported for them?
1. CC(C)N1CCC([C@@](O)(c2ccc(-n3cc(-c4ccnc5[nH]cnc45)cn3)cc2)C(F)(F)F)C1 (some centres unmarked) [Example 1252]
2. CS(=O)(=O)CC[C@@H](c1ccc(-n2cc(-c3ccnc4[nH]cnc34)cn2)nc1)C(F)(F)F [Example 1181]
3. CC(C)N1CCC(C(O)(c2ccc(-n3cc(-c4ccnc5[nH]cnc45)cn3)nc2)C(F)(F)F)CC1 (centres unmarked) [Example 1240]

Response:
< 0.1 µM
< 0.1 µM
> 0.03 µM

====

Kindly supply the reported IC50 values for the records listed here.
Study System: Recombinant TYK2 (Homo sapiens, UniProt P29597)
Construct: purchased Carna Biosciences
Sequence (P29597 whole entry): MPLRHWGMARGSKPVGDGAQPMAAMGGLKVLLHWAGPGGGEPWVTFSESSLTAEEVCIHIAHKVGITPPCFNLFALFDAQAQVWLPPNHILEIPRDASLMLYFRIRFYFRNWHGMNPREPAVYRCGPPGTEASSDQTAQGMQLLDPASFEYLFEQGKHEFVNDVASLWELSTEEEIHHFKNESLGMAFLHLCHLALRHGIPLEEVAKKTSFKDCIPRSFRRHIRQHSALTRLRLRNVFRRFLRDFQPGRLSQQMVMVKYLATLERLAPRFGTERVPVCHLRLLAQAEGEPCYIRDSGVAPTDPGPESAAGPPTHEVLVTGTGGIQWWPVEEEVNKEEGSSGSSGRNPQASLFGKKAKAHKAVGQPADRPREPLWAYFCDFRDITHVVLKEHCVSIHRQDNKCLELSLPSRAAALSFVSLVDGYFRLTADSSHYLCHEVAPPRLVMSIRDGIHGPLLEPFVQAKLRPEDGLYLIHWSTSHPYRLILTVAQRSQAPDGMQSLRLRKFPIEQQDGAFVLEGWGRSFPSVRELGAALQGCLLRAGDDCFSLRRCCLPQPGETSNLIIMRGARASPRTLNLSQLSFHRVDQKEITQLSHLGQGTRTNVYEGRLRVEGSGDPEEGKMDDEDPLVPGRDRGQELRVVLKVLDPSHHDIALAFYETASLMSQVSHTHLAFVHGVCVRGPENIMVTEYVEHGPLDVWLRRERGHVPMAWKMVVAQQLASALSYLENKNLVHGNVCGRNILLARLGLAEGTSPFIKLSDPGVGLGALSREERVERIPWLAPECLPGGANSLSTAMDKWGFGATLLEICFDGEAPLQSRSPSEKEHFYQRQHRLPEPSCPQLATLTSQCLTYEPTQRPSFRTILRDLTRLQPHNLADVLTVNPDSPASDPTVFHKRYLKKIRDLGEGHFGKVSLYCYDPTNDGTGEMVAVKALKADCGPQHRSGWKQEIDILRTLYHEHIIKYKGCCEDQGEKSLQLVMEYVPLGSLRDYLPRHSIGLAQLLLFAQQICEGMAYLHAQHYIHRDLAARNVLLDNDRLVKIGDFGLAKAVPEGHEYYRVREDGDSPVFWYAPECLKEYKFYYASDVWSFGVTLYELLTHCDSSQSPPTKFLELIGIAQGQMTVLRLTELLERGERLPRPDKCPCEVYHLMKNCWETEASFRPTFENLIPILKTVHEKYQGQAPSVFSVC
Test Protocol: JAK biochemical assay (LANCE Ultra TR-FRET), TYK2
Recorded Conditions: recombinant TYK2, TR-FRET; read-out: Biochemical Assay (μM) TYK2

// below: answered compounds
{"Compound": "N#CCCC(c1ccc(-n2cc(-c3ccnc4[nH]cnc34)cn2)nc1)C(F)(F)F (stereo not drawn)", "IC50": "> 1 µM"}
{"Compound": "O=C(NCC(F)(F)F)Nc1ncc(-c2ccnc3[nH]c(=O)[nH]c23)cn1", "IC50": "> 10 µM"}
{"Compound": "CC(F)(c1ccc(-n2cc(-c3ccnc4[nH]cnc34)cn2)nc1)C(F)(F)F (stereo not drawn)", "IC50": "> 1 µM"}
{"Compound": "CC(=O)N1CCC(C(O)(c2ccc(-n3cc(-c4ccnc5[nH]cnc45)cn3)nc2)C(F)(F)F)CC1 (stereo not drawn)", "IC50": "> 1 µM"}
{"Compound": "N#CC1CN(Cc2ccc(-n3cc(-c4ccnc5[nH]cnc45)cn3)nc2)C1", "IC50": "> 10 µM"}

Each of the following entries comes with a recorded value; kindly state IC50 for each.
1. COC(c1cccc(-n2cc(-c3ccnc4[nH]cnc34)cn2)n1)C(F)(F)F (stereo not drawn)
2. N#CCc1ccc(-n2cc(-c3ccnc4[nH]cnc34)cn2)cc1
3. CC(C)N(CCC(c1ccc(-n2cc(-c3ccnc4[nH]cnc34)cn2)nc1)C(F)(F)F)C(C)C (stereo not drawn)
4. O=C(N1CCN(c2ccnc3[nH]c(=O)[nH]c23)CC1)N1CCS(=O)(=O)CC1
5. c1cc(-c2cnn(-c3ccc(CN4CCOCC4)cn3)c2)c2nc[nH]c2n1
6. N#CCC(=O)NCc1ccc(-n2cc(-c3ccnc4[nH]cnc34)cn2)nc1
7. CN(C)C(=O)CC(c1ccc(-n2cc(-c3ccnc4[nH]cnc34)cn2)nc1)C(F)(F)F (stereo not drawn)

Response:
["> 1 µM", "> 1 µM", "> 1 µM", "> 10 µM", "> 10 µM", "> 10 µM", "> 1 µM"]

Quick batch: IC50 for everything below.
1. CNCCOC(c1ccc(-n2cc(-c3ccnc4[nH]cnc34)cn2)nc1)C(F)(F)F (stereo not drawn)
2. CC(C)[C@@H](C#N)NC(=O)n1cc(-c2ccnc3[nH]cnc23)cn1
3. CC(C)(CO)C(c1ccc(-n2cc(-c3ccnc4[nH]cnc34)cn2)nc1)C(F)(F)F (stereo not drawn)

Response:
1. > 0.1 µM
2. > 0.5 µM
3. > 1 µM

Please report IC50 for every entry that follows.
1. CC(C#N)c1ccc(-n2cc(-c3ccnc4[nH]cnc34)cn2)nc1 (stereo not drawn)
2. CCn1c(=O)[nH]c2nccc(-c3cnn(C(=O)NCC(F)(F)F)c3)c21
3. N#CC1CCN(C(=O)n2cc(-c3ccnc4[nH]cnc34)cn2)CC1
4. N#CCc1ccc(-n2cc(-c3ccnc4[nH]cnc34)cn2)nc1
5. N#CCCC(O)(c1ccc(-n2cc(-c3ccnc4[nH]cnc34)cn2)nc1)C(F)(F)F (stereo not drawn)
6. N#CC1CN(C(=O)CCC(c2ccc(-n3cc(-c4ccnc5[nH]cnc45)cn3)nc2)C(F)(F)F)C1 (stereo not drawn)
7. CS(=O)(=O)CCC(c1ccc(-n2cc(-c3ccnc4[nH]cnc34)cn2)cc1)C(F)(F)F (stereo not drawn)

Response:
1. > 1 µM
2. > 10 µM
3. > 10 µM
4. > 1 µM
5. > 0.1 µM
6. > 1 µM
7. > 1 µM

====

Study System: Recombinant TYK2 (Homo sapiens)
Construct: purchased Carna Biosciences
Test Protocol: JAK biochemical assay (LANCE Ultra TR-FRET), TYK2
Recorded Conditions: recombinant TYK2, TR-FRET; read-out: Biochemical Assay (μM) TYK2
Experimental: Recombinant JAK1, JAK2, JAK3 and TYK2 (Carna Biosciences) were used to develop biochemical assays in 50 mM HEPES pH 7.5, 1 mM EGTA, 10 mM MgCl2, 2 mM DTT and 0.01% Tween-20. […] The intensity of the light emission is proportional to the level of ULight substrate phosphorylation. Compounds which interfere with JAK enzyme activity show a lesser substrate phosphorylation and values are projected in terms of % inhibition in comparison to vehicle control.
Measurement Label: IC50

Quick request: IC50 for each listed item, please.
1. N#CC(c1ccc(-n2cc(-c3ccnc4[nH]cnc34)cn2)nc1)N1CCOCC1 (centres unmarked)
2. O=C(NC1CCS(=O)(=O)CC1)N1CCN(c2ccnc3[nH]c(=O)[nH]c23)CC1

Response:
1: > 1 µM; 2: > 10 µM

Give me IC50 for each of these compounds, listed below.
1. CCOc1nc2c(-c3cnn(C(=O)NCC(F)(F)F)c3)ccnc2[nH]1
2. CC(CC#N)NC(=O)n1cc(-c2ccnc3[nH]c(=O)[nH]c23)cn1 (centres unmarked) [Example 1046]
3. CS(=O)(=O)CCC(C#N)c1ccc(-n2cc(-c3ccnc4[nH]cnc34)cn2)nc1 (centres unmarked)
4. O=C(NCC(F)(F)F)c1ccc(-c2ccnc3[nH]c(=O)[nH]c23)cc1

Response:
1. > 10 µM
2. < 0.5 µM
3. > 1 µM
4. > 10 µM

Fill in IC50 for each of the 2 compounds listed.
1. O=C(NCCC(c1ccc(-n2cc(-c3ccnc4[nH]cnc34)cn2)nc1)C(F)(F)F)NC1CC1 (centres unmarked)
2. N#CC(NC(=O)n1cc(-c2ccnc3[nH]c(=O)[nH]c23)cn1)C1CCCC1 (centres unmarked)

Response:
1: > 1 µM; 2: > 0.5 µM

====

Study System: Recombinant JAK2 (Homo sapiens, UniProt O60674)
Construct: purchased Carna Biosciences
Sequence (O60674 whole entry): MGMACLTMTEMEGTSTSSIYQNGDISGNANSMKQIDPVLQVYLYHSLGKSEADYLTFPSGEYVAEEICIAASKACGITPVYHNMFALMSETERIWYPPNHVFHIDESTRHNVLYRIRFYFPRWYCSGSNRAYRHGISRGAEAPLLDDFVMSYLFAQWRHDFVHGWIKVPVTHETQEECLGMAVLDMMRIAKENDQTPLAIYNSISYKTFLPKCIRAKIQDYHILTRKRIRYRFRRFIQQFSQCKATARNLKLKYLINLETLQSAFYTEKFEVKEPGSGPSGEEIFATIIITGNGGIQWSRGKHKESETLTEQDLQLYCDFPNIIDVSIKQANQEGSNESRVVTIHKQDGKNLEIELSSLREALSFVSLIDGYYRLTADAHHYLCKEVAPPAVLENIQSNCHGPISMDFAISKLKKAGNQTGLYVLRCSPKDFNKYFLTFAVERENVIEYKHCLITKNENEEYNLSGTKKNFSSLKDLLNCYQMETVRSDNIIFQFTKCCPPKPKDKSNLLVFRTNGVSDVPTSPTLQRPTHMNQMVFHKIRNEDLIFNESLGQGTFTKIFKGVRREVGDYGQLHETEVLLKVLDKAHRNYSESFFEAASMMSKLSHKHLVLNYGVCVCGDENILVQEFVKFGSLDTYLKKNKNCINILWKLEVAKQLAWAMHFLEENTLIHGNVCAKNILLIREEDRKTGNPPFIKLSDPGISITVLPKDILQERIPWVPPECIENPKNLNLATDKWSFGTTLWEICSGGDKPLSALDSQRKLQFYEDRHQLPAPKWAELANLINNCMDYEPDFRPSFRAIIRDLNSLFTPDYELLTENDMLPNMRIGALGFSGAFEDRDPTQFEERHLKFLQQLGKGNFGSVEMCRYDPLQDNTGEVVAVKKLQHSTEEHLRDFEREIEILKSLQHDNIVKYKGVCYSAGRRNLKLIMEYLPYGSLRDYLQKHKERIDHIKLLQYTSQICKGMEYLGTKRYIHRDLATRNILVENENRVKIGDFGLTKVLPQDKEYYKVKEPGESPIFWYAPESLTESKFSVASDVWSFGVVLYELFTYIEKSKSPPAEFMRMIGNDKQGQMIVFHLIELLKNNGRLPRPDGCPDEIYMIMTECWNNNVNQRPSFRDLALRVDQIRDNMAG
Test Protocol: JAK biochemical assay (LANCE Ultra TR-FRET), JAK2
Recorded Conditions: recombinant JAK2, TR-FRET; read-out: Biochemical Assay (μM) JAK2
Where a name gives a salt, the structure may show the parent alone.
Measurement Label: IC50

{"Compound": "O=C(CCC(c1ccc(-n2cc(-c3ccnc4[nH]cnc34)cn2)nc1)C(F)(F)F)NC1CC1 (centres unmarked)", "IC50": "< 0.1 µM"}
{"Compound": "CC(C)NCCOC(c1ccc(-n2cc(-c3ccnc4[nH]cnc34)cn2)nc1)C(F)(F)F (centres unmarked) [Example 1241, TFA salt]", "IC50": "> 0.1 µM"}
{"Compound": "c1cc(-c2cnn(Cc3cnco3)c2)c2nc[nH]c2n1", "IC50": "> 1 µM"}
{"Compound": "N#CC1(NC(=O)n2cc(-c3ccnc4[nH]c(=O)[nH]c34)cn2)CC1", "IC50": "< 0.5 µM"}
{"Compound": "CC(F)(c1ccc(-n2cc(-c3ccnc4[nH]cnc34)cn2)nc1)C(F)(F)F (centres unmarked)", "IC50": "> 0.5 µM"}
{"Compound": "O=S(=O)(CCC(c1ccc(-n2cc(-c3ccnc4[nH]cnc34)cn2)nc1)C(F)(F)F)CC1CC1 (centres unmarked)", "IC50": "< 0.1 µM"}
{"Compound": "FC(F)(F)[C@@H](c1ccc(-n2cc(-c3ccnc4[nH]cnc34)cn2)nc1)C1COC1 (single isomer, unassigned)", "IC50": "> 0.1 µM"}
{"Compound": "COc1cc(NC(=O)N2CCN(c3ccnc4[nH]c(=O)[nH]c34)CC2)ccn1", "IC50": "> 1 µM"}
{"Compound": "CS(=O)(=O)CC(c1ccc(-n2cc(-c3ccnc4[nH]cnc34)cn2)nc1)C(F)(F)F (centres unmarked)", "IC50": "> 0.1 µM"}
{"Compound": "FC(F)(F)C(CCNC1CCCCC1)c1ccc(-n2cc(-c3ccnc4[nH]cnc34)cn2)nc1 (centres unmarked)", "IC50": "> 0.1 µM"}

Lab note: each compound below needs its IC50 filled in.
1. N#CCC(=O)Nc1ccc(-n2cc(-c3ccnc4[nH]cnc34)cn2)cc1
2. N#CCC(=O)N1CC(C(O)(c2ccc(-n3cc(-c4ccnc5[nH]cnc45)cn3)nc2)C(F)(F)F)C1 (centres unmarked)
3. CC(CCS(C)(=O)=O)c1ccc(-n2cc(-c3ccnc4[nH]cnc34)cn2)nc1 (centres unmarked)

Response:
1: > 0.5 µM; 2: > 0.03 µM; 3: > 0.5 µM
